- TESTED TARGET: haematopoietic prostaglandin D synthase (H-PGDS) (Homo sapiens, UniProt O60760)
- Construct: Full length human H-PGDS cDNA (Invitrogen Ultimate ORF IOH13026) was amplified by PCR; made in house; host or cells: E. coli BL21 (DE3*), vector pET22b+
- Sequence (O60760 whole entry): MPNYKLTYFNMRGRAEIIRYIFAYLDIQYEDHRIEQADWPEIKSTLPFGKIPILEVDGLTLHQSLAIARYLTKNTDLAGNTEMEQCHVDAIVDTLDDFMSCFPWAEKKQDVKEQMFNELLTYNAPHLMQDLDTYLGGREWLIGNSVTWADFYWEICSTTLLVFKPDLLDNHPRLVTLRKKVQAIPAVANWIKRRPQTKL
- ASSAY REMARKS: H-PGDS RapidFire High Throughput Mass Spectrometry Assay
- Format: biochemical
- CONDITION SET: H-PGDS RapidFire MS assay, mean pIC50; read-out: Potency Range (mean pIC50) (converted)
MEASUREMENT TYPE: IC50

Q: Give recorded IC50. C[C@H](N[C@H]1CC[C@H](NC(=O)c2cnc3cc(OC(F)F)c(F)cc3c2)CC1)C(F)(F)F
Ans: < 10 nM

Q: Quick one: give measured IC50 for O=C(N[C@H]1CCN(CC2CCCC2)C1=O)c1cnc2cc(OC(F)F)c(F)cc2c1
Ans: 10 to 79.4 nM

Q: Output IC50 of O=C(N[C@H]1CC[C@H](NCC(F)F)CC1)c1cnc2cc(C3CC3)c(F)cc2c1
Ans: < 10 nM

Q: For C[C@H]1CCN1c1cc2ncc(C(=O)N[C@H]3CC[C@H](C(C)(C)O)CC3)cc2cc1Cl , write its IC50.
Ans: < 10 nM

Q: Input O=C1CC(NC(=O)c2cnc3cc(OC(F)F)ccc3c2)c2ccccc2N1 (centres unmarked) , output reported IC50.
Ans: 10 to 79.4 nM

Q: In one line, give reported IC50 of the entry Cn1nnnc1N1CCC(NC(=O)c2cnc3cc(C(F)(F)F)ccc3c2)CC1 .
Ans: 100 to 1000 nM

Q: Indicate its recorded IC50; the molecule in question is CC(N[C@H]1CC[C@H](NC(=O)c2cnc3cc(OC(F)F)c(F)cc3c2)CC1)C(F)(F)F (some centres unmarked)
Ans: 10 to 79.4 nM

Q: Determine from records and report IC50 for CC(C)(O)C(=O)N1CCN(NC(=O)c2cnc3cc(OC(F)F)c(Cl)cc3c2)CC1
Ans: 10 to 79.4 nM

====

Please go through the items and note down their IC50.
- TESTED TARGET: haematopoietic prostaglandin D synthase (H-PGDS) (Homo sapiens)
- Construct: Full length human H-PGDS cDNA (Invitrogen Ultimate ORF IOH13026) was amplified by PCR; made in house; host or cells: E. coli BL21 (DE3*), vector pET22b+
- ASSAY REMARKS: H-PGDS RapidFire High Throughput Mass Spectrometry Assay
- Assay type: biochemical
- CONDITION SET: H-PGDS RapidFire MS assay, mean pIC50; read-out: Potency Range (mean pIC50) (converted)
Counter-ions that a name gives are not always drawn.

Q: Report value: IC50, system: haematopoietic prostaglandin D synthase (H-PGDS) (Homo sapiens), molecule: COc1c(Cl)ccc2cc(C(=O)NC3CCN(c4nnnn4C)CC3)cnc12 [Example 31]
Ans: 100 to 1000 nM

Q: Enter measured IC50, system haematopoietic prostaglandin D synthase (H-PGDS) (Homo sapiens), for the molecule shown: CC(O)(CO[C@H]1CC[C@H](NC(=O)c2cnc3cc(OC(F)F)c(F)cc3c2)CC1)C(F)(F)F (stereo partly shown) [Example 76]
Ans: 10 to 79.4 nM

Q: Please tell me the measured IC50 for CC(C)(O)[C@H]1CC[C@H](NC(=O)c2cnc3cc(OC(F)F)c(Br)cc3c2)CC1 [Example 152] ; system: haematopoietic prostaglandin D synthase (H-PGDS) (Homo sapiens).
Ans: < 10 nM

Q: Consider the molecule CC(C)(O)CO[C@H]1CC[C@H](NC(=O)c2cnc3cc(OC(F)F)c(Cl)cc3c2)CC1 [Example 122] tested on haematopoietic prostaglandin D synthase (H-PGDS) (Homo sapiens); state its IC50.
Ans: < 10 nM

Q: Give IC50; test system haematopoietic prostaglandin D synthase (H-PGDS) (Homo sapiens); molecule O=C(N[C@H]1C[C@H](N2CC(O)(C(F)(F)F)C2)C1)c1cnc2cc(OC(F)F)c(Cl)cc2c1 [Example 214]
Ans: < 10 nM

Q: // fetch IC50; item: C[C@@H](N[C@H]1CC[C@H](NC(=O)c2cnc3cc(OC(F)F)c(Cl)cc3c2)CC1)C(F)F [Example 129] ; system: haematopoietic prostaglandin D synthase (H-PGDS) (Homo sapiens)
Ans: < 10 nM

Q: Report its IC50 with haematopoietic prostaglandin D synthase (H-PGDS) (Homo sapiens) as the test system: O=C(N[C@H]1CC[C@H](C(O)C2CC2)CC1)c1cnc2cc(OC(F)F)ccc2c1 (stereo partly shown) [Example 14]
Ans: < 10 nM

Q: Answer with IC50 of N#Cc1cc2cc(C(=O)NC3CC(=O)Nc4ccccc43)cnc2cc1C1CC1 (stereo not shown) [Example 26] measured for haematopoietic prostaglandin D synthase (H-PGDS) (Homo sapiens).
Ans: < 10 nM

Q: Consider the molecule CSc1cc2ncc(C(=O)N[C@H]3CC[C@H](C(C)(C)O)CC3)cc2cc1F [Example 161] tested on haematopoietic prostaglandin D synthase (H-PGDS) (Homo sapiens); state its IC50.
Ans: < 10 nM

Q: State IC50 (haematopoietic prostaglandin D synthase (H-PGDS) (Homo sapiens)) of O=C(N[C@H]1CC[C@H](C2(O)CC2)CC1)c1cnc2cc(OC(F)F)ccc2c1 [Example 18] .
Ans: < 10 nM

Q: Enter IC50 (test system haematopoietic prostaglandin D synthase (H-PGDS) (Homo sapiens)) for O=C(N[C@H]1C[C@H](NCC(F)(F)F)C1)c1cnc2cc(OC(F)F)c(F)cc2c1 [Example 59]
Ans: 10 to 79.4 nM

Q: Print haematopoietic prostaglandin D synthase (H-PGDS) (Homo sapiens) IC50 for Cn1nnnc1N1CCC(NC(=O)c2cnc3cc4c(cc3c2)OCCO4)CC1 [Example 111] .
Ans: 10 to 79.4 nM

Q: Supply IC50 measured with haematopoietic prostaglandin D synthase (H-PGDS) (Homo sapiens) for CC(C)(O)[C@H]1CC[C@H](NC(=O)c2cnc3cc(N4CCCC4)c(F)cc3c2)CC1 [Example 163] .
Ans: 100 to 1000 nM

Q: Please look at CC(C)(O)[C@H]1CC[C@H](NC(=O)c2cnc3cc(C4CC4)c(Cl)cc3c2)CC1 [Example 39, trifluoroacetic Acid Salt] and tell me its recorded IC50 on haematopoietic prostaglandin D synthase (H-PGDS) (Homo sapiens).
Ans: < 10 nM

Q: // fetch IC50 for CCOc1cc2ncc(C(=O)N[C@H]3CC[C@H](C(C)(C)O)CC3)cc2cc1F [Example 178] ; system: haematopoietic prostaglandin D synthase (H-PGDS) (Homo sapiens)
Ans: 10 to 79.4 nM

Q: For haematopoietic prostaglandin D synthase (H-PGDS) (Homo sapiens), give the measured IC50 of the entry CC(C)(O)[C@@H]1CC[C@@H](NC(=O)c2cnc3cc(OC(F)F)c(Cl)cc3c2)CO1 (racemic) [Example 124]
Ans: < 10 nM
